ASSAYED_TARGET: immobilized Aβ fibrils (Homo sapiens, UniProt P05067)
Sequence (P05067 672-713 limits assumed): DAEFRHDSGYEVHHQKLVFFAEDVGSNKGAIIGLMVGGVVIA
ASSAY_NOTES: FAC-MS assay of free Aβ monomer (indicator) binding to immobilized Aβ fibrils in the presence of test compounds
CONDITION_NOTES: FAC-MS screen; shift of free Aβ monomer breakthrough on immobilized Aβ fibrils in presence of compound; scale not given
METRIC_NAME: Aβ Shift
The answer should be written as a number, with no unit following it.

CC(C)CC(=O)O[C@@H]1[C@@H](OC(=O)CC(C)C)[C@H](OC(=O)CC(C)C)[C@H](O)[C@H](OC(=O)CC(C)C)[C@H]1OC(=O)CC(C)C has a reported Aβ Shift of 2

----------
ASSAYED_TARGET: immobilized Aβ fibrils (Homo sapiens)
ASSAY_NOTES: FAC-MS assay of free Aβ monomer (indicator) binding to immobilized Aβ fibrils in the presence of test compounds
CONDITION_NOTES: FAC-MS % shift of breakthrough time of free Aβ1-42 monomer (1 μM) on immobilized Aβ fibrils; compounds 1-10 μM in 20 mM NH4OAc, 1% DMSO; void marker M3
Below: a set of entries, each annotated with reported % of Shift.
Write the number in % without appending the unit.

[
  {
    "COMPOUND": "O=P(O)(O)O[C@H]1[C@H](OP(=O)(O)O)[C@@H](OP(=O)(O)O)[C@H](OP(=O)(O)O)[C@@H](OP(=O)(O)O)[C@H]1OP(=O)(O)O [Compound P-3168, Phytic acid, reference compound]",
    "NUMERIC_RESULT": 2
  },
  {
    "COMPOUND": "CC(=O)OC1C(OC(=O)CC(C)C)C(OC(=O)CC(C)C)C(OC(=O)CC(C)C)C(OC(=O)CC(C)C)C1OC(=O)CC(C)C (stereo not shown) [Compound 37387013]",
    "NUMERIC_RESULT": 3
  },
  {
    "COMPOUND": "CC(C)C(=O)OC1C(OC(=O)C(C)C)C(OC(=O)C(C)C)C(OC(=O)C(C)C)C(OC(=O)C(C)C)C1OC(=O)C(C)C (stereo not shown) [Compound 37387007]",
    "NUMERIC_RESULT": 5
  }
]

Summary: C[C@H]1O[C@H](OC2[C@@H](O)[C@@H](O)C(O)[C@H](O)[C@H]2O)[C@@H](N)C[C@@H]1N=C(N)C(=O)O.Cl (stereo partly shown) [Compound K413, Kasugamycin hydrochloride, reference compound] , immobilized Aβ fibrils (Homo sapiens), % of Shift = 2

----------
ASSAYED_TARGET: immobilized Aβ fibrils (Homo sapiens)
ASSAY_NOTES: FAC-MS assay of free Aβ monomer (indicator) binding to immobilized Aβ fibrils in the presence of test compounds
CONDITION_NOTES: FAC-MS screen; shift of free Aβ monomer breakthrough on immobilized Aβ fibrils in presence of compound; scale not given
This listing pairs compounds with measured Aβ Shift.

Some solved cases for reference:
[
  {
    "COMPOUND": "CN(C)C(=S)NC(=O)C12CC3CC(C)(CC(C)(C3)C1)C2",
    "ASSAYED_TARGET": "immobilized Aβ fibrils (Homo sapiens)",
    "Aβ Shift": 1
  },
  {
    "COMPOUND": "CC1CCCC(NC(=O)c2ccc3snnc3c2)C1C (stereo not shown)",
    "ASSAYED_TARGET": "immobilized Aβ fibrils (Homo sapiens)",
    "Aβ Shift": 1
  },
  {
    "COMPOUND": "Cc1ccc(C(=O)OC2CC(C)CCC2C(C)C)cc1C (stereo not shown)",
    "ASSAYED_TARGET": "immobilized Aβ fibrils (Homo sapiens)",
    "Aβ Shift": 2
  },
  {
    "COMPOUND": "CC12CC3CC(C)(C1)CC(c1ccc(O)cc1)(C3)C2",
    "ASSAYED_TARGET": "immobilized Aβ fibrils (Homo sapiens)",
    "Aβ Shift": 2
  },
  {
    "COMPOUND": "CC12CC3(C)CC(N)(C1)CC(C(=O)O)(C2)C3",
    "ASSAYED_TARGET": "immobilized Aβ fibrils (Homo sapiens)",
    "Aβ Shift": 2
  }
]

Aβ Shift for CCCCCCCCCC(=O)NC1CCCC(C)C1C (stereo not shown) is 0

Lookup result for CC12CC3CC(C)(C1)CC(C(N)=O)(C3)C2 ; measured Aβ Shift: 1

----------
ASSAYED_TARGET: immobilized Aβ fibrils (Homo sapiens)
ASSAY_NOTES: FAC-MS assay of free Aβ monomer (indicator) binding to immobilized Aβ fibrils in the presence of test compounds
CONDITION_NOTES: FAC-MS screen; shift of free Aβ monomer breakthrough on immobilized Aβ fibrils in presence of compound; scale not given
METRIC_NAME: Aβ Shift
Reply: number alone, nothing else.

[
  {
    "COMPOUND": "O=C(O)C1C2C(=O)OC3C(Cl)C1C1(CC1)C32 (centres unmarked)",
    "ASSAYED_TARGET": "immobilized Aβ fibrils (Homo sapiens)",
    "Aβ Shift": 0
  },
  {
    "COMPOUND": "CC1CC(OC(=O)CN2CCCCC2)CC(C)(C)C1 (centres unmarked)",
    "ASSAYED_TARGET": "immobilized Aβ fibrils (Homo sapiens)",
    "Aβ Shift": 1
  },
  {
    "COMPOUND": "CC1C(C(=O)Nc2ccccc2)CCCC1(C)C(=O)O (centres unmarked)",
    "ASSAYED_TARGET": "immobilized Aβ fibrils (Homo sapiens)",
    "Aβ Shift": 1
  },
  {
    "COMPOUND": "CC(C)C(=O)O[C@@H]1[C@@H](OC(=O)C(C)C)[C@H](OC(=O)C(C)C)[C@H](O)[C@H](OC(=O)C(C)C)[C@H]1OC(=O)C(C)C",
    "ASSAYED_TARGET": "immobilized Aβ fibrils (Homo sapiens)",
    "Aβ Shift": 4
  },
  {
    "COMPOUND": "CC12CC3CC(C)(C1)CC(CNC(=O)c1ccccc1)(C3)C2",
    "ASSAYED_TARGET": "immobilized Aβ fibrils (Homo sapiens)",
    "Aβ Shift": 1
  }
]

Lookup result for CC1CC(OC(=O)/C=C/c2ccccc2)CC(C(C)C)C1 (centres unmarked) ; measured Aβ Shift: 0

Entry CC(=O)C1C2CC3C(C2Cl)C31 (centres unmarked) , Aβ Shift reported as 1

So, Cc1cccc(NC(=O)C23CCC(C)(C(O)C2)C3(C)C)n1 (centres unmarked) ? Its Aβ Shift was 0

----------
ASSAYED_TARGET: immobilized Aβ fibrils (Homo sapiens, UniProt P05067)
ASSAY_NOTES: FAC-MS assay of free Aβ monomer (indicator) binding to immobilized Aβ fibrils in the presence of test compounds
CONDITION_NOTES: FAC-MS screen; shift of free Aβ monomer breakthrough on immobilized Aβ fibrils in presence of compound; scale not given
Aβ Shift for assorted molecules
Number, no unit, nothing else.

[
  {
    "MOLECULE": "CC1CCN(CC(=O)OC2CC(C)CCC2C(C)C)CC1 (stereo not shown)",
    "METRIC_NAME": "Aβ Shift",
    "NUMERIC_RESULT": 1
  },
  {
    "MOLECULE": "COc1ccc(C2(O)C(C)CCCC2C)cc1 (stereo not shown)",
    "METRIC_NAME": "Aβ Shift",
    "NUMERIC_RESULT": 0
  },
  {
    "MOLECULE": "COC(=O)C12CCC(C)(C(O)C1)C2(C)C (stereo not shown)",
    "METRIC_NAME": "Aβ Shift",
    "NUMERIC_RESULT": 1
  },
  {
    "MOLECULE": "CC(=O)OCC12COC(C)(CC1C)CC2C (stereo not shown)",
    "METRIC_NAME": "Aβ Shift",
    "NUMERIC_RESULT": 1
  },
  {
    "MOLECULE": "CC12CC3(C)CC(C)(C1)CC(C(=O)O)(C2)C3",
    "METRIC_NAME": "Aβ Shift",
    "NUMERIC_RESULT": 2
  },
  {
    "MOLECULE": "CC(C)C1CCC(C)C(OC(=O)C2C3CCCCC32)C1 (stereo not shown)",
    "METRIC_NAME": "Aβ Shift",
    "NUMERIC_RESULT": 1
  }
]

According to the records, this molecule CC1(C)CC(=O)C2=C(C1)CC1(C)CC(C)(C)CC2(C#N)C1 (stereo not shown) displays Aβ Shift of 0

----------
ASSAYED_TARGET: immobilized Aβ fibrils (Homo sapiens)
ASSAY_NOTES: FAC-MS assay of free Aβ monomer (indicator) binding to immobilized Aβ fibrils in the presence of test compounds
CONDITION_NOTES: FAC-MS screen; shift of free Aβ monomer breakthrough on immobilized Aβ fibrils in presence of compound; scale not given
Recorded measurements of Aβ Shift, one per entry
Please give only the number in your answer, with no unit.

[
  {
    "COMPOUND": "CC12CC3CC(C)(C1)CC(C(=O)NO)(C3)C2",
    "METRIC_NAME": "Aβ Shift",
    "NUMERIC_RESULT": 1
  },
  {
    "COMPOUND": "CC(C)(C)C(=O)O[C@H]1[C@H](OC(=O)C(C)(C)C)[C@@H](OC(=O)C(C)(C)C)[C@H](OC(=O)C(C)(C)C)[C@@H](OC(=O)C(C)(C)C)[C@H]1OC(=O)C(C)(C)C",
    "METRIC_NAME": "Aβ Shift",
    "NUMERIC_RESULT": 4
  },
  {
    "COMPOUND": "OCC1(CO)CCCC(CO)(CO)C1O",
    "METRIC_NAME": "Aβ Shift",
    "NUMERIC_RESULT": 1
  },
  {
    "COMPOUND": "CC1CCC(C(C)C)C(OC(=O)C(O)O)C1 (stereo not drawn)",
    "METRIC_NAME": "Aβ Shift",
    "NUMERIC_RESULT": 1
  },
  {
    "COMPOUND": "CC1CCCC(NC(=O)NC2CCCCC2)C1C (stereo not drawn)",
    "METRIC_NAME": "Aβ Shift",
    "NUMERIC_RESULT": 0
  }
]

immobilized Aβ fibrils (Homo sapiens) data for CC12CC3CC(C)(C1)CC(O)(C3)C2 ; its Aβ Shift: 0

Record CC1CCCC(n2c(=S)[nH]c3ccccc3c2=O)C1C (stereo not drawn) has immobilized Aβ fibrils (Homo sapiens) Aβ Shift equal to 1

Lab note: compound CC1CC(C)CC(OC(=O)c2ccco2)C1 (stereo not drawn) tested on immobilized Aβ fibrils (Homo sapiens); recorded Aβ Shift was 0

Summary: CC1CCC(COC(=O)CN2CCCCC2)C(C)C1 (stereo not drawn) , immobilized Aβ fibrils (Homo sapiens), Aβ Shift = 1
